Test system: Saccharomyces cerevisiae;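 also: PSI is a weighted mean of sequencing reads over stability bins, variants kept only with over 10 reads, mCherry proximal and sfGFP distal, peptide attached via GGGS linker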
procedure_summary: protein stability index of tFT-peptide fusion (C-terminal peptide) (PSI (0-1 scale)); higher = more stable (slower turnover)
assay_conditions: genetic background: wild type; temperature: 30 C
Would you kindly list protein stability index for each of these sequences?
Give bare numbers.

// below: answered sequences
LYLFKVLFFRVF
0.0584
PLSSHIPVHEAR
0.645
FFSFFLSFRLWF
0.429
LFSPLKGILSVM
0.316
SGWGGGTWVKMG
0.12
WLFASCVFFWSS
0.37

// for each sequence below, give its protein stability index
1. KKNITRLKNKMT
2. PPPPLATTSAPL
3. LPLVFYCFLLHS
4. VECPWFCLGVLA

Found:
1. 0.199
2. 0.665
3. 0.376
4. 0.284

Hey, quick one: what's protein stability index for each of these?
1. SIVDLFRLRSLS
2. GITSFFSWSFLS
3. CMILVACFYLPS

Found:
0.298
0.172
0.294

# batch: return protein stability index for each of the 4 sequences below
1. FFCLFCLSCWVL
2. GVAVVWVGLGVT
3. GAVGRWGWVSFV
4. IVLCVFTVDSDF

Found:
1: 0.312; 2: 0.262; 3: 0.357; 4: 0.291
